- tested_system: RARβ (Homo sapiens, UniProt P10826)
- Sequence (P10826 whole entry, species assumed): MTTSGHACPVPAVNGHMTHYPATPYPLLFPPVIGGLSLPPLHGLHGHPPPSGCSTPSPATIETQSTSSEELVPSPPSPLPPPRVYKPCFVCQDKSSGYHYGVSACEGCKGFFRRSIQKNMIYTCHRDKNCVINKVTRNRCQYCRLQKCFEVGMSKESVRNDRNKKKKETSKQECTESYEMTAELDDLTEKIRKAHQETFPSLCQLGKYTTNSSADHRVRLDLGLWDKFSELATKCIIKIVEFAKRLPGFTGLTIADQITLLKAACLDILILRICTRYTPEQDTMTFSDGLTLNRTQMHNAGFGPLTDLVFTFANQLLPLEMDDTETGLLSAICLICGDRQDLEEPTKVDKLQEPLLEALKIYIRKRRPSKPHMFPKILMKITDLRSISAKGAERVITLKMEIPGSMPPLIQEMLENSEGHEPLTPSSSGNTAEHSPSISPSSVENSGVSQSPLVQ
pKi: −log10 of the molar value.
quantity_measured: pKi

1) CCc1ccc(C2=CC(C)(C)Sc3ccc(C#Cc4ccc(C(=O)O)cc4)cc32)cc1	8.70

* * *

- tested_system: RARα (Homo sapiens, UniProt P10276)
- Sequence (P10276 whole entry, species assumed): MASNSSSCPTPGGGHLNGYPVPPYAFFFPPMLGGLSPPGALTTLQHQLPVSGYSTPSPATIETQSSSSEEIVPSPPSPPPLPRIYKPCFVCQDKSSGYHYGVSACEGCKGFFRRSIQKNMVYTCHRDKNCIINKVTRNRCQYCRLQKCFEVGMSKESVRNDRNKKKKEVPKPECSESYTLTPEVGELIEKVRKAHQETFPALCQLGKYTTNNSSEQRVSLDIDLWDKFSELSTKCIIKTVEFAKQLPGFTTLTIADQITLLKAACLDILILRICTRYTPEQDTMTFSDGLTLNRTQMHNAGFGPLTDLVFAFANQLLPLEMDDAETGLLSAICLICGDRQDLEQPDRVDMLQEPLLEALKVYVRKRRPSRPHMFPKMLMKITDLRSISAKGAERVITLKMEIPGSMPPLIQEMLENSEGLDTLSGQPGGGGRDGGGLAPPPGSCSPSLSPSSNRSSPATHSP
pKi: −log10 of the molar value.
quantity_measured: pKi

1) CCc1ccc(C2=CC(C)(C)Sc3ccc(C#Cc4ccc(C(=O)O)cc4)cc32)cc1	8.52

* * *

Protein target, amino acids: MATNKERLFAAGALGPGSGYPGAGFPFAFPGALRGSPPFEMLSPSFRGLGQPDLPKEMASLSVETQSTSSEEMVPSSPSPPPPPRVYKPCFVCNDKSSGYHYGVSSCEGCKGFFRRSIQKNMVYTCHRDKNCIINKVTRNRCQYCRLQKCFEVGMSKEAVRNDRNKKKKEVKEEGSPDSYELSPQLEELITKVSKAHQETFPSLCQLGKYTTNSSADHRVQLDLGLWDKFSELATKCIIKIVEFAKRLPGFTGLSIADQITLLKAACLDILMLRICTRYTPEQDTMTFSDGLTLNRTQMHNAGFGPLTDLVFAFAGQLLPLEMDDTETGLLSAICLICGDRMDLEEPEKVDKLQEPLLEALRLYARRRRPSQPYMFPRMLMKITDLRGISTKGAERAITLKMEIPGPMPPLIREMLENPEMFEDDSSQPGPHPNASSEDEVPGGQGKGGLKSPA
quantity_measured: Ki (nM)

1. CCc1ccc(C2=CC(C)(C)Sc3ccc(C#Cc4ccc(C(=O)O)cc4)cc32)cc1	5
